tested on: rodent lifetime carcinogenesis bioassay, tumor incidence TD50; assay: carcinogenic potency in animals, long-term in vivo studies, CPDB compilation (AID 1745844); conditions: rat; strain Fischer 344; males; in drinking water; site: skin; lesion: basal-cell adenoma; dosed 88 weeks; study length 92 weeks
parameter: TD50 (mg/kg/day)
Give the value, in units of mg/kg/day, as a plain number.

Note to self: TD50 recorded for "COc1cc(-c2ccc(N)c(OC)c2)ccc1N" was 0.789

---

tested on: rodent lifetime carcinogenesis bioassay, tumor incidence TD50; experiment: carcinogenic potency in animals, long-term in vivo studies, CPDB compilation (AID 1745844); settings: rat; strain F344/DuCrj; females; in drinking water; site: ear duct; lesion: squamous-cell carcinoma, sebaceous; dosed 50 weeks; study length 50 weeks
parameter: TD50 (mg/kg/day)
Reply numerically in mg/kg/day, unit not repeated.

Data point: "CCCCN(N=O)C(N)=O" ; TD50 = 19.4
